- assayed-system: Calmodulin (Homo sapiens)
- protocol: Inhibition of human Ca2+-calmodulin by molecular docking (AutoDock)
recorded-endpoint: pKi
Field pKi (float): negative decimal logarithm of the concentration in molar.

Prompt: I would be grateful if you could share the reported pKi for CC(=O)OCc1c(OCC=C(C)C)c(C)cc2oc3cccc(O)c3c(=O)c12 [VARIECOXANTHONE A ACETATE] .
Response: 6.55

Prompt: I would be grateful if you could share the reported pKi for "C=C(C)[C@H]1COc2c(C)cc3oc4c([C@H](OC)[C@@H]5OC5(C)C)ccc(O)c4c(=O)c3c2[C@@H]1O" .
Response: 7.57

Prompt: I would be grateful if you could share the reported pKi for CC(C)=CCOc1c(C)cc2oc3c(CC=C(C)C)ccc(O)c3c(=O)c2c1CO [EMERICELLIN] .
Response: 6.86

Prompt: I would be grateful if you could share the reported pKi for "C=C(C)[C@H]1COc2c(C)cc3oc4c(C[C@H](O)C(C)(C)Cl)ccc(O)c4c(=O)c3c2[C@@H]1O" .
Response: 7.11

Prompt: I would be grateful if you could share the reported pKi for C=C(C)[C@@H]1COc2c(C)cc3oc4c(C[C@@H]5OC5(C)C)ccc(O)c4c(=O)c3c2[C@H]1O [TAJIXANTHONE] .
Response: 7.27

Prompt: I would be grateful if you could share the reported pKi for "C=C(C)[C@H]1COc2c(C)cc3oc4c(C[C@H](OC(C)=O)C(C)(C)O)ccc(O)c4c(=O)c3c2[C@@H]1O" .
Response: 8.51

Prompt: I would be grateful if you could share the reported pKi for C=C(C)[C@H]1COc2c(C)cc3oc4c(C[C@H](O)C(C)(C)O)ccc(O)c4c(=O)c3c2[C@@H]1O [TAJIXANTHONE HYDRATE] .
Response: 8.07

Prompt: I would be grateful if you could share the reported pKi for C=C(C)[C@H]1COc2c(C)cc3oc4c(CC=C(C)C)ccc(O)c4c(=O)c3c2[C@@H]1O [SHAMIXANTHONE] .
Response: 7.08
